Target: T1, human CLDN18.2 (human)
T1 construct: also called claudin18.2
Experiment: FACS, NUGC-4 cells (natural CLDN18.2)
Readout label: EC50 (nM)
Answer format: numeric, nM implied, no suffix.

What value of measured EC50 is listed for IMAB362 (antibody, human IgG1, kappa, V domains shown, Positive control, prepared in-house; also called Claudiximab; TMAB362 [sic]) VH: QVQLQQPGAELVRPGASVKLSCKASGYTFTSYWINWVKQRPGQGLEWIGNIYPSDSYTNYNQKFKDKATLTVDKSSSTAYMQLSSPTSEDSAVYYCTRSWRGNSFDYWGQGTTLTVSS VL: DIVMTQSPSSLTVTAGEKVTMSCKSSQSLLNSGNQKNYLTWYQQKPGQPPKLLIYWASTRESGVPDRFTGSGSGTDFTLTISSVQAEDLAVYYCQNDYSYPFTFGSGTKLEIKR ? 293

What value of measured EC50 is listed for humanized antibody hz28G3-1.3 (antibody, human IgG1, kappa, V domains shown) VH: QVQLVQSGAEVKKPGASVKVSCKTSGYSFTDYLMLWVRQAHGQSLEWMGNINPYYGRTTYALKFKGRVTMTVDRSTSTVYMELSSLRSEDTAVYYCARDGYSLRNAMDYWGQGTLVTVSS VL: DIVMTQSPDSLAVSLGERATINCKSSQSLFNSGNQKNYLAWYQQKPGQPPKLLIYGASTRESGVPDRFSGSGSGTDFTLTISSLQAEDVAVYYCQNAHSYPYTFGQGTKVEIKR ? 10.5

What value of measured EC50 is listed for humanized antibody hz28G3-2.3 (antibody, human IgG1, kappa, V domains shown) VH: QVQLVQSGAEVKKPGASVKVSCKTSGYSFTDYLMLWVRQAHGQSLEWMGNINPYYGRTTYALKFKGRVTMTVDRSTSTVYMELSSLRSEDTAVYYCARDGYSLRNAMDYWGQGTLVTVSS VL: DIVMTQSPYSLAVSLGERATINCKSSQSLFNSGNQKNYLAWYQQKPGQPPKLLIYGASTRESGVPDRFTGSGSGTDFTLTISSLQAEDVAVYYCQNAHSYPYTFGQGTKVEIKR ? 11.9

What value of measured EC50 is listed for humanized antibody hz28G3-1.2 (antibody, human IgG1, kappa, V domains shown) VH: QVQLVQSGAEVKKPGASVKVSCKASGYTFTDYLMLWVRQAPGQGLEWMGNINPYYGRTYYALKFQGRVTMTVDRSTSTVYMELSSLRSEDTAVYYCARDGYSLRNAMDYWGQGTLVTVSS VL: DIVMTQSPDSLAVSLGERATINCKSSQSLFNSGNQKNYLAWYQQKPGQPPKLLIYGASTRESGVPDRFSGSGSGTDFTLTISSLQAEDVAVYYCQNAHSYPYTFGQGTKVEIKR ? 14.1

What value of measured EC50 is listed for humanized antibody hz28G3-1.4 (antibody, human IgG1, kappa, V domains shown) VH: QVQLVQSGAEVKKPGASVKVSCKASGYTFTDYLMLWVRQAHGQSLEWMGNINPYYGRTYYALKFQGRVTMTVDRSTSTVYMELSSLRSEDTAVYYCARDGYSLRNAMDYWGQGTLVTVSS VL: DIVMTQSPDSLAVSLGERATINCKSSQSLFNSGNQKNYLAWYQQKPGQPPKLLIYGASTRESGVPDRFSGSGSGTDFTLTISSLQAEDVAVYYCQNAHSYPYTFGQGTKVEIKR ? 14
